Assign Photostability T50 to each entry below.
Assay Remarks: Photostability, thin-film irradiation in Atlas Suntest xenon lamp
Assay type: physicochemical
Stated Conditions: thin film on glass, Suntest 750 W/m2; time for first 50% loss
Reply with a number, then the unit it belongs to.

Entry CC(=O)N(c1cc(F)nc(F)c1)c1nc(C(=O)NC2CCC2(C)C)c(C)s1 (stereo not shown) ; Photostability T50 = 5.5 h

// field: Photostability T50; key: Cc1sc(N(C=O)c2cc(F)nc(F)c2)nc1C(=O)NC1CCC1(C)C (stereo not shown) ; value = 2.8 h

// sample COC(=O)N(c1cc(F)nc(F)c1)c1nc(C(=O)NC2CCC2(C)C)c(C)s1 (stereo not shown) , its Photostability T50 was 6.2 h

Looking up COCC(=O)N(c1cc(F)nc(F)c1)c1nc(C(=O)NC2CCC2(C)C)c(C)s1 (stereo not shown) , I see its Photostability T50 listed as 2.8 h

Lab note: CCOC(=O)N(c1cc(F)nc(F)c1)c1nc(C(=O)NC2CCC2(C)C)c(C)s1 (stereo not shown) gave Photostability T50 of 11 h

So, COC(=O)CC(=O)N(c1cc(F)nc(F)c1)c1nc(C(=O)NC2CCC2(C)C)c(C)s1 (stereo not shown) ? Its Photostability T50 was 4.4 h

// Cc1sc(N(C(=O)Oc2ccccc2)c2cc(F)nc(F)c2)nc1C(=O)NC1CCC1(C)C (stereo not shown) : Photostability T50 value = 18 h

Value of Photostability T50 reported for the compound Cc1sc(Nc2cc(F)nc(F)c2)nc1C(=O)NC1CCC1(C)C (stereo not shown) [Compound E-0, reference compound] is 3.5 h

# compound Cc1sc(N(C(=O)c2ccco2)c2cc(F)nc(F)c2)nc1C(=O)NC1CCC1(C)C (stereo not shown) ; its Photostability T50 = 14 h

Entry CCOC(=O)C(=O)N(c1cc(F)nc(F)c1)c1nc(C(=O)NC2CCC2(C)C)c(C)s1 (stereo not shown) ; Photostability T50 = 5.5 h

----------
Assign chromatographic logP to each entry below.
Assay Remarks: Octanol-water partition coefficient (Log P) by HPLC on octanol-coated mini-columns
Stated Conditions: pH 7
// return a plain number; no unit text

GET /value?item= COC(=O)N(c1cc(F)nc(F)c1)c1nc(C(=O)NC2CCC2(C)C)c(C)s1 (centres unmarked) &field=chromatographic logP returns 4.21

// chromatographic logP value for Cc1sc(N(C(=O)Oc2ccccc2)c2cc(F)nc(F)c2)nc1C(=O)NC1CCC1(C)C (centres unmarked) : 5.34

----------
Provide the recorded chromatographic logP for the entries that follow.
Assay Remarks: physchem
Stated Conditions: pH 7
Give a plain numeric answer without units written out.

Lookup result for COCC(=O)N(c1cc(F)nc(F)c1)c1nc(C(=O)NC2CCC2(C)C)c(C)s1 (stereo not shown) ; measured chromatographic logP: 3.35

Measured chromatographic logP, COC(=O)CC(=O)N(c1cc(F)nc(F)c1)c1nc(C(=O)NC2CCC2(C)C)c(C)s1 (stereo not shown) : 3.59

CC(=O)N(c1cc(F)nc(F)c1)c1nc(C(=O)NC2CCC2(C)C)c(C)s1 (stereo not shown) has a reported chromatographic logP of 3.8

Reported chromatographic logP of CCOC(=O)C(=O)N(c1cc(F)nc(F)c1)c1nc(C(=O)NC2CCC2(C)C)c(C)s1 (stereo not shown) : 4.34

Reported chromatographic logP of CCOC(=O)N(c1cc(F)nc(F)c1)c1nc(C(=O)NC2CCC2(C)C)c(C)s1 (stereo not shown) : 4.58

# chromatographic logP (molecule: Cc1sc(N(C=O)c2cc(F)nc(F)c2)nc1C(=O)NC1CCC1(C)C (stereo not shown) ) is 3.61

Per the records, this molecule ( Cc1sc(N(C(=O)c2ccco2)c2cc(F)nc(F)c2)nc1C(=O)NC1CCC1(C)C (stereo not shown) ) has chromatographic logP equal to 4.61
